// data source = patent US5518735A

Catalogue of concentration at 3 h values
- Test Protocol: Plasma concentration in rats after oral administration (HPLC)
- Conditions Used: rat, plasma, po, 100 mg/kg
Express the result in ng/mL but write the number alone.

{"Compound": "N=C(N)c1cccc(CC(NS(=O)(=O)c2ccc3ccccc3c2)C(=O)N2CCCCC2C(=O)O)c1 (racemic)", "Unit Of Measure": "ng/mL", "Measured": 25}

Q. Report concentration at 3 h for NCc1cccc(CC(NS(=O)(=O)c2ccc3ccccc3c2)C(=O)N2CCC(C(=O)O)CC2)c1 (racemic) please.
A. 357

Q. Subsequent entry: N=C(N)c1cccc(CC(NS(=O)(=O)c2ccc3ccccc3c2)C(=O)N2CCC(C(=O)O)CC2)c1 (racemic)
A. 104
